system: Malme-3M; experiment: NCI tumour cell line growth inhibition, 48 h
The source made the active and inactive calls. Cut-off read from the data, not from the text of the source: active = GI50 up to about 1.1 µM and inactive = higher.
GI50 by entry:
measured_property: GI50

> print(dat)
                                    compound  target.or.system  measured.property           data.value
 1  CN(C)c1ccc(/C=N/c2nc3cc4sc(/N=C/c5ccc(N(C)C)cc5)nc4cc3s2)cc1          Malme-3M               GI50  > 100 µM (inactive)
 2          CCOC(=O)/C=C1\Nc2ccccc2-n2nnnc21          Malme-3M               GI50  > 100 µM (inactive)
 3  CC1CC/C(=C\c2ccc(F)cc2)C(=O)/C1=C/c1ccc(F)cc1 (stereo unspecified)          Malme-3M               GI50   17.9 µM (inactive)
 4      C#CC[C@]12CC(=O)CC[C@H]1CC1(C2)OCCO1          Malme-3M               GI50  > 100 µM (inactive)
 5            COC(=O)C(=O)CC(=O)c1cccc(OC)c1          Malme-3M               GI50  > 100 µM (inactive)
 6  Cc1cn(C2CC(O)C(Cn3cc(Cn4ncc(=O)[nH]c4=O)nn3)O2)c(=O)[nH]c1=O (stereo unspecified)          Malme-3M               GI50  > 100 µM (inactive)
 7  CC(C)NC(=O)OCCN=C1c2ccccc2C(Br)C(Br)c2ccccc21 (stereo unspecified)          Malme-3M               GI50    5.4 µM (inactive)
 8  O=C1CC(O)c2c(Br)sc(Br)c21 (stereo unspecified)          Malme-3M               GI50   17.1 µM (inactive)
 9                   O=C(O)Cc1nc[nH]c1C(=O)O          Malme-3M               GI50  > 100 µM (inactive)
10  COC(=O)c1cc(S(=O)(=O)NC2=NNC(C)CN2)c(S)cc1Cl (stereo unspecified)          Malme-3M               GI50     24 µM (inactive)
11  CC(C)CCCC(C)[C@H]1CC[C@H]2NCCCC[C@]12C (stereo partly specified)          Malme-3M               GI50   4.61 µM (inactive)

----------
test system: HCC 2998; assay: NCI tumour cell line growth inhibition, 48 h
Calls of active or inactive are those of the source. Rule as the data show it: active = GI50 up to about 1.1 µM and inactive = higher.
Outcomes: active, inactive

> print(dat)
                                    molecule  answer.label
 1  O=C(NCCCNCCNC(=O)c1cc(-c2ccccc2)nc2ccccc12)c1cc(-c2ccccc2)nc2ccccc12      inactive
 2  N#CC1C(=O)N(c2ccccc2)NC12OC(=O)c1ccncc12 (stereo unspecified)      inactive
 3  N#CC1=C(S)N(C2OC(CO)C(O)C(O)C2O)C(c2ccccc2)=CC1c1ccccc1 (stereo unspecified)      inactive
 4  COc1ccc(-n2c(SC(CN3CCOCC3)CN3CCCC3=O)nc3ccccc3c2=O)cc1 (stereo unspecified)      inactive
 5            COC(=O)C(=O)CC(=O)c1cccc(OC)c1      inactive
 6                 OC1=CN=C(C2CC2)Oc2ccccc21      inactive
 7  CC(OC1CC(=O)CC2C(=O)C=CC(=O)C12)c1ccccc1 (stereo unspecified)      inactive
 8  CN1C(=O)CCC1(O)C1C=CC=CC1 (stereo unspecified)      inactive
 9  N#CCCN(CCC#N)C(=O)c1cccc(C(=O)N(CCC#N)CCC#N)c1      inactive
10  COc1ccc(CCCNC(=O)Cc2cc(OC)c(OC)cc2CO)cc1OC      inactive
11       CN(C(=O)C1=CCC2(CC1)OCCO2)c1ccccc1I      inactive
12  CCOc1cc(/C=N/c2ccc(Oc3ccc(Cl)cc3)c(Cl)c2)ccc1O      inactive
13  Cc1coc2c1C(OC(=O)C(C)C)C1(C)C(C)CCC(O)C1C2=O (stereo unspecified)      inactive
14  CCOC(=O)CC/C(=N/Nc1ccc(Cl)cc1[N+](=O)[O-])C(=O)OCC      inactive
15  COC(=O)C(CCSC)NC(=O)CNC(=O)CSc1nnc(COc2ccc(Cl)cc2)n1-c1ccccc1 (stereo unspecified)      inactive
16  COC(=O)C1[C@H](c2ccc3c(c2)OCO3)OC(=O)[C@]1(C(=O)OC)C(=O)c1ccc(OC)c(OC)c1 (stereo partly specified)      inactive
17  COC(=O)Cc1ccc2c(c1)Sc1ccc(CC(=O)OC)cc1N2C      inactive
18  CC(SC(=S)N1CCCC1)C(=O)Nc1nnc(-c2ccc(Cl)cc2)o1 (stereo unspecified)      inactive
19     O/N=C1\CC2(N3CCOCC3)CCC1(c1ccccc1)CC2      inactive
20  Cc1ccc(NC(=O)CC2Sc3ccccc3NC2=O)cc1C (stereo unspecified)      inactive
21            Cc1cccc(NC(=S)Nc2ccc(Cl)cc2)n1      inactive
22  COc1ccc2[nH]c3c(C)c4ccnc(NCCCN(C)CCCNc5ccc([N+](=O)[O-])c6[nH]c7ccccc7c(=O)c56)c4c(C)c3c2c1        active
23  O=C(CC1(O)C(=O)Nc2ccc([N+](=O)[O-])cc21)c1ccc2ccccc2c1 (stereo unspecified)      inactive
24        Nc1ccccc1C(=O)CCC1C(=O)NC(=S)NC1=O      inactive
25  CCCS(=O)(=O)/C(=C(\c1ccc(Br)cc1)S(=O)(=O)CCC)c1ccc(Br)cc1      inactive
26  O=C1/C(=C/c2ccc([N+](=O)[O-])cc2)CNC/C1=C\c1ccc([N+](=O)[O-])cc1      inactive
27  CCN(CC)Cc1ccccc1CC(=O)N1c2ccccc2C(=O)Nc2cccnc21      inactive
28    O=c1[nH]c2cc(C(F)(F)F)ccc2nc1Cc1ccccc1      inactive
29  COC(=O)C1C2C=CC(C2)N1[C@@H](C)c1ccccc1 (stereo partly specified)      inactive
30                       CC(=O)CC[N+](C)(C)C      inactive
31  CC(C(=O)O)/C(=C\c1ccc2c(c1)OCO2)C(=O)O (stereo unspecified)      inactive
